Biological target: T1, Zscan4(ZnF) (Mus musculus, UniProt Q80VJ6 369-506)
T1 sequence: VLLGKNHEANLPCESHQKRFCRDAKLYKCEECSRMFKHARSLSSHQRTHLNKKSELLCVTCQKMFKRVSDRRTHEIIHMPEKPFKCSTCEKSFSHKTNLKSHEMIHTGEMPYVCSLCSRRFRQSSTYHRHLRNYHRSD
Assay: EMSA
pKd: −log10 of the molar value.
Recorded Metric: pKd

Problem: Fill in reported pKd for this entry: (TG)n oligo (dsDNA) DNA 1: TGTGTGCATCTGTGTGCATCAT DNA 2: ATGATGCACACAGATGCACACA
Result: ~3.30
